B1: HDV Ribozyme (parent)
chain: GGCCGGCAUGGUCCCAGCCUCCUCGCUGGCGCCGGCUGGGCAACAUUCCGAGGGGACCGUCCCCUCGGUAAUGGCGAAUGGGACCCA

Variants of: B1
assayComment: self-cleavage, relative activity (ratio to wild type); higher = more cleavage; co-transcriptional
The entries below are paired with their reported self-cleavage.

Before answering, review these 2 worked examples.
{"sequenceChain": "GGCCGGCAUGGUCCCAGCCUCUUCGCUGGCGCUGGCUGGGCAACAUUCCGAGGGGACCGUCCCCUCGGUAAUGGCGAAUGGGACCCA [C22U C33U]", "self-cleavage": 0.533}
{"sequenceChain": "GGCCGGCAUGGUCCCAGCCUCCUCGCUGGCGCAGGCUGGGCAACAUUCCGAGGGGACCGUCCCCUCGGUUAUGGCGAAUGGGACCCA [C33A A70U]", "self-cleavage": 0.458}

# evaluate next
q: Tell me the measured self-cleavage of GGCCGGCAUGGUCCCAGCCUCCUCGCUGUCGCCGGCUGGGCAACAUUCCGAGAGGACCGUCCCCUCGGUAAUGGCGAAUGGGACCCA [G29U G53A] , please.
a: 0.0432
